So I've got a bunch of compounds here, and I need their selectivity ratio values.
- protocol: Selectivity index, ratio of GI50 for human THP1 cells to MIC for dormant phase Mycobacterium tuberculosis H37Ra ATCC 25177
- Assay type: toxicity, cell-based, THP-1
- measurementSetup: read-out: Selectivity Index
Give bare numbers.

Illustrative cases are given below, each with its answer.
Clc1ccc(Cn2cc(COc3c(Cl)cc(Cl)cc3Cl)nn2)cc1	3.2
Clc1ccc(OCc2cn(Cc3ccc(Br)cc3)nn2)cc1	9.2
Clc1cccc(Cn2cc(COc3ccccc3)nn2)c1	0.5

Take each entry in turn and give its selectivity ratio.
1. Cc1ccc(OCc2cn(Cc3ccc(Cl)cc3)nn2)cc1
2. Clc1cc(Cl)c(OCc2cn(Cc3ccc(Br)cc3)nn2)c(Cl)c1
3. Cc1ccc(OCc2cn(Cc3cccc(Cl)c3)nn2)cc1
4. O=[N+]([O-])c1ccc(Cn2cc(COc3ccc(Cl)cc3)nn2)cc1

[3.1, 2.1, 1.3, 1.1]

Which selectivity ratio reading was recorded for the compound `Brc1ccc(Cn2cc(COc3ccccc3)nn2)cc1` ?
0.6
